test system: Jurkat HIV-luciferase clones; assay: Jurkat latency reversal assay; format: cell-based; details: Homo sapiens, 48 h; Jurkat latency reversal assay potency; read-out: Jurkat pEC50 (converted)

{"columns": ["smiles_text", "EC50"],
 "data": [
  ["C[C@@H]1CN(CC(=O)N2CC(C)(C)c3[nH]c(=O)c(Cc4ccc(F)cc4)cc32)[C@@H](CN2CCC(CN(C)C(=O)Cc3cccc(C(=O)N(C)CC4CCN(C[C@H]5CN[C@H](C)CN5CC(=O)N5CC(C)(C)c6[nH]c(=O)c(Cc7ccc(F)cc7)cc65)CC4)c3)CC2)CN1", "63.1 to 316 nM"],
  ["C[C@@H]1CN(CC(=O)N2CC(C)(C)c3[nH]c(=O)c(Cc4ccc(F)cc4)cc32)[C@@H](CN2CCO[C@H](COc3ccc(Cc4ccc(OC[C@@H]5CN(C[C@H]6CN[C@H](C)CN6CC(=O)N6CC(C)(C)c7[nH]c(=O)c(Cc8ccc(F)cc8)cc76)CCO5)cc4)cc3)C2)CN1", "12.6 to 63.1 nM"]
]}
